// provenance: patent US7674803B2

Assay target: microsomal triglyceride transfer protein (MTP) (Mesocricetus auratus, UniProt P55158)
Sequence (P55158 19-895): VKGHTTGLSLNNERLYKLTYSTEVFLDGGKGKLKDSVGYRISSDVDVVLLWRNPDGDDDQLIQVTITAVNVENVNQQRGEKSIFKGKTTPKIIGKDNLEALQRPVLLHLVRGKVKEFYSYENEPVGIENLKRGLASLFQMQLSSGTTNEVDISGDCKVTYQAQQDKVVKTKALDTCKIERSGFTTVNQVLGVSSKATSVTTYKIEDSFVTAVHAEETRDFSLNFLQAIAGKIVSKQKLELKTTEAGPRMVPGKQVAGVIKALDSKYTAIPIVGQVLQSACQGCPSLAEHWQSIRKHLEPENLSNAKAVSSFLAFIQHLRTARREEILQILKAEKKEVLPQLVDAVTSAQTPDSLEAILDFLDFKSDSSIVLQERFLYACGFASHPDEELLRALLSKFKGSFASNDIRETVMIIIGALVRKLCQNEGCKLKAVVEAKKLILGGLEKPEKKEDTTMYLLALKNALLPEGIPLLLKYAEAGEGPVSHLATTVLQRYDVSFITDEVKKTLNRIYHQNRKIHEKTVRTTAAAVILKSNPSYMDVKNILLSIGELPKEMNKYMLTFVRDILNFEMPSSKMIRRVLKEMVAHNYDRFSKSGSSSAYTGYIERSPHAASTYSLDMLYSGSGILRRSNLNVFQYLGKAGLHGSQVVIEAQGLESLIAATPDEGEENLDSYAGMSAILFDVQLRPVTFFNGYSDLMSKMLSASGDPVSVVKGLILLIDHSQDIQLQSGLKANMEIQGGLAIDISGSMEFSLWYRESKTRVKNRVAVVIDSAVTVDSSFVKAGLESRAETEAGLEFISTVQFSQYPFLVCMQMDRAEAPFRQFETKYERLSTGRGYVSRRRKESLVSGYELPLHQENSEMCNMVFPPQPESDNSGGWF
# IC50 annotations
Measurement name: IC50 (µM)

Compound	Assay target	Units of measure	Numeric value
CC(C(=O)c1ccccc1)N(C)C(=O)c1csc(C2CCN(C(=O)c3ccccc3-c3ccc(C(F)(F)F)cc3)CC2)n1 (stereo not drawn)	microsomal triglyceride transfer protein (MTP) (Mesocricetus auratus, UniProt P55158)	µM	0.72
C[C@H](C(=O)c1ccccc1)N(C)C(=O)c1csc(C2CCN(C(=O)c3ccccc3-c3ccc(C(F)(F)F)cc3)CC2)n1	microsomal triglyceride transfer protein (MTP) (Mesocricetus auratus, UniProt P55158)	µM	0.66
CCN(C(=O)c1csc(C2CCN(C(=O)c3cccc(C)c3-c3ccc(OC(F)(F)F)cc3)CC2)n1)C(C)C(=O)c1ccccc1 (stereo not drawn)	microsomal triglyceride transfer protein (MTP) (Mesocricetus auratus, UniProt P55158)	µM	0.051
